Tested on: normal empfindlichen Haemonchus contortus
Assay: Haemonchus contortus/sheep test, normally sensitive strain (faecal egg count before and after oral treatment)
Format: in vivo
Details: Schaf, pure active substance in gelatine capsules, treated after prepatent period, reduction of worm egg excretion ≥90 %, read-out: Dosis effectiva minima (Red. ≥90 %) normal empfind-licher Stamm
Source text: Haemonchus contortus/Schaf Experimentell mit normal empfindlichen bzw. mit gegen Benzimidazol-Anthelmintika resistenten Haemonchus contortus infizierte Schafe wurden nach Ablauf der Präpatenzzeit des Parasiten behandelt. Die Wirkstoffe wurde als reiner Wirkstoff in Gelatinekapseln oral appliziert. Der Wirkungsgrad wird dadurch bestimmt, daß man die mit dem Kot ausgeschiedenen Wurmeier vor und nach der Behandlung quantitativ auszählt. […]
I'd be grateful if you could share measured minimal effective dose for these entries.
Numbers only, in mg/kg.

The cases that follow already have their minimal effective dose on record.
COC(=O)Nc1nc2ccc(Sc3ccccc3)cc2[nH]1	0.5
CCCSc1ccc2nc(NC(=O)OC)[nH]c2c1	0.5
CCOP(=S)(OCC)OC(=CC#N)c1cccc(C)c1	1
CCOP(=S)(OCC)OC(=CC#N)c1ccccc1Br	1
CCCCc1ccc2[nH]c(NC(=O)OC)nc2c1	1
c1ccc2[nH]c(-c3cscn3)nc2c1	25

Here's the next entry for you.
The measured minimal effective dose associated with CCCOP(=S)(OCC)OC(=CC#N)c1ccccc1C (stereo not shown) reads 2.5

These data points were gathered from patent EP0033825A2.
